Origin of values: the supplement of paper PMC7125110

B1: glmS ribozyme (parent)
chain: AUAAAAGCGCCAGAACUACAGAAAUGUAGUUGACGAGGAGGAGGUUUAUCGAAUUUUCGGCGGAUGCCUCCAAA

Variants of: B1
Experiment: self-cleavage kobs at 640 uM GlcN6P; higher = faster cleavage; RNA array
Conditions: with glucosamine-6-phosphate
Fewer inactive variants are shown than the library holds.

>  <Mutation Annotation>
A33G A64C

>  <Reading Qualifier>
<

>  <self-cleavage kobs at 640 uM GlcN6P (s⁻¹)>
1e-05

$$$$
>  <Mutation Annotation>
A52C C71G

>  <Reading Qualifier>
<

>  <self-cleavage kobs at 640 uM GlcN6P (s⁻¹)>
1e-05

$$$$
>  <Mutation Annotation>
G32C G51A G66A

>  <Reading Qualifier>
<

>  <self-cleavage kobs at 640 uM GlcN6P (s⁻¹)>
1e-05

$$$$
>  <Mutation Annotation>
G29A U49A

>  <Reading Qualifier>
<

>  <self-cleavage kobs at 640 uM GlcN6P (s⁻¹)>
1e-05

$$$$
>  <Mutation Annotation>
A42U C58A C61G

>  <Reading Qualifier>
<

>  <self-cleavage kobs at 640 uM GlcN6P (s⁻¹)>
1e-05

$$$$
>  <Mutation Annotation>
C8A U49C

>  <Reading Qualifier>
<

>  <self-cleavage kobs at 640 uM GlcN6P (s⁻¹)>
1e-05

$$$$
>  <Mutation Annotation>
C16U G40C U49C G51A

>  <Reading Qualifier>
<

>  <self-cleavage kobs at 640 uM GlcN6P (s⁻¹)>
1e-05

$$$$
>  <Mutation Annotation>
G29C U47G

>  <Reading Qualifier>
=

>  <self-cleavage kobs at 640 uM GlcN6P (s⁻¹)>
7.76e-05

$$$$
>  <Mutation Annotation>
G43C G63U

>  <Reading Qualifier>
<

>  <self-cleavage kobs at 640 uM GlcN6P (s⁻¹)>
1e-05

$$$$
>  <Mutation Annotation>
U45C U46G

>  <Reading Qualifier>
=

>  <self-cleavage kobs at 640 uM GlcN6P (s⁻¹)>
0.000322

$$$$
>  <Mutation Annotation>
G44C C61G

>  <Reading Qualifier>
<

>  <self-cleavage kobs at 640 uM GlcN6P (s⁻¹)>
1e-05

$$$$
>  <Mutation Annotation>
A15G C67G

>  <Reading Qualifier>
=

>  <self-cleavage kobs at 640 uM GlcN6P (s⁻¹)>
0.000243

$$$$
>  <Mutation Annotation>
U45A U46G

>  <Reading Qualifier>
=

>  <self-cleavage kobs at 640 uM GlcN6P (s⁻¹)>
0.0264

$$$$
>  <Mutation Annotation>
A14G C16U U45A G51U C61G

>  <Reading Qualifier>
<

>  <self-cleavage kobs at 640 uM GlcN6P (s⁻¹)>
1e-05

$$$$
>  <Mutation Annotation>
U31C G32A U55A

>  <Reading Qualifier>
=

>  <self-cleavage kobs at 640 uM GlcN6P (s⁻¹)>
0.000149

$$$$
>  <Mutation Annotation>
G51U U69G C71A

>  <Reading Qualifier>
=

>  <self-cleavage kobs at 640 uM GlcN6P (s⁻¹)>
7.38e-05

$$$$
>  <Mutation Annotation>
G66U C71A

>  <Reading Qualifier>
=

>  <self-cleavage kobs at 640 uM GlcN6P (s⁻¹)>
8.54e-05

$$$$
>  <Mutation Annotation>
G9U G41U

>  <Reading Qualifier>
<

>  <self-cleavage kobs at 640 uM GlcN6P (s⁻¹)>
1e-05

$$$$
>  <Mutation Annotation>
A14U C16U

>  <Reading Qualifier>
=

>  <self-cleavage kobs at 640 uM GlcN6P (s⁻¹)>
0.00297

$$$$
>  <Mutation Annotation>
C50G C58U C61U

>  <Reading Qualifier>
=

>  <self-cleavage kobs at 640 uM GlcN6P (s⁻¹)>
0.000479

$$$$
>  <Mutation Annotation>
C16A G60U U69G

>  <Reading Qualifier>
<

>  <self-cleavage kobs at 640 uM GlcN6P (s⁻¹)>
1e-05

$$$$
>  <Mutation Annotation>
G41C G43C

>  <Reading Qualifier>
<

>  <self-cleavage kobs at 640 uM GlcN6P (s⁻¹)>
1e-05

$$$$
